Read-out: Intercellular Adhesion Molecule 1 (ICAM1), ICAM1 (gene 3383)
Assay: BSK_KF3CT_ICAM1: BioMAP Diversity Plus: KF3CT Assay for Intercellular Adhesion Molecule 1 (ICAM1) Biomarker Activity (AID 2283067)
Details: primary human keratinocytes with fibroblasts; actives raise or lower the signal
Active and inactive are the calls of the source. How the source made its calls: active means hit-call score of the fitted dose curve at least 0.9, where 1 is the maximum; inactive means score below 0.9.
Give one outcome, nothing more. List: True (active), False (inactive)

The following compounds have reported results that may help.
{"compound": "CCCCCCCCCCCCN(C)C", "label_value": "False"}
{"compound": "O=S(=O)(c1ccc(Cl)cc1)c1cc(Cl)c(Cl)cc1Cl", "label_value": "False"}
{"compound": "CCC(C)(C#N)N=NC(C)(C#N)CC (centres undefined)", "label_value": "False"}
{"compound": "Cc1ccccc1OP(=O)(Oc1ccccc1)Oc1ccccc1", "label_value": "False"}

Q: Please let me know the test result on file for O=c1oc2ccccc2c(O)c1C(CC(O)c1ccc(-c2ccc(Br)cc2)cc1)c1ccccc1 (centres undefined) .
Result: True

Q: Please let me know the test result on file for OC(Cc1ccccc1Cl)(Cn1[nH]cnc1=S)C1(Cl)CC1 (centres undefined) .
Result: False

Q: Please let me know the test result on file for CCCCN(CCCC)C(=S)[S-].CCCCN(CCCC)C(=S)[S-].[Ni+2] .
Result: False

Q: Please let me know the test result on file for Oc1cc(Cl)c(Cl)cc1Cl .
Result: False

Q: Please let me know the test result on file for CC(C)(C)c1ccccc1O .
Result: False

Q: Please let me know the test result on file for CCOC(=O)CC(=O)CCl .
Result: False

Q: Please let me know the test result on file for Cc1cc(C)cc(C)c1 .
Result: False

Q: Please let me know the test result on file for Oc1c(Br)cc(Br)cc1Br .
Result: False

Q: Please let me know the test result on file for CN(C)C(=S)S .
Result: False

Q: Please let me know the test result on file for CC1(C)[C@H](C(=O)O[C@H](C#N)c2cccc(Oc3ccccc3)c2)[C@@H]1/C=C(\Cl)C(F)(F)F .
Result: False

* * *

Read-out: Tumor necrosis factor (Homo sapiens) (UniProt P01375)
Sequence (P01375 whole entry, looked up): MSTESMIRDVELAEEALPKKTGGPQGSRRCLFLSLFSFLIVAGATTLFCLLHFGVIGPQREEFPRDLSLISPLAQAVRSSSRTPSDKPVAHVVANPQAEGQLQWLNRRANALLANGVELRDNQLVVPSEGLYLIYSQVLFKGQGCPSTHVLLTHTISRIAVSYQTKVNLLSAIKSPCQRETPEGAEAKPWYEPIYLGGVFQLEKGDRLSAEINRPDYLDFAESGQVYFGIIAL
Assay: BSK_BT_xTNFa: BioMAP Diversity Plus: BT Assay for Tumor necrosis factor alpha (TNF-alpha) Biomarker Activity (AID 2284230)
Details: primary human B cells with PBMC
Calls of active or inactive are those of the source. Rule for the calls: active = hit-call score of the fitted dose curve at least 0.9, where 1 is the maximum; inactive = score below 0.9.
Give one outcome, nothing more. List: 1 = active, 0 = inactive

The following compounds have reported results that may help.
{"compound": "CCOP(=S)(OCC)SCS(=O)(=O)C(C)(C)C", "label_value": 0}
{"compound": "C[C@]12CC[C@@H](O)C[C@@H]1CC[C@@H]1[C@@H]2CC[C@]2(C)C(=O)CC[C@@H]12", "label_value": 0}
{"compound": "Nc1c(Oc2ccccc2)cc(O)c2c1C(=O)c1ccccc1C2=O", "label_value": 0}
{"compound": "Oc1ccc(Cc2ccc(O)cc2)cc1", "label_value": 0}
{"compound": "Cc1cccc(OP(=O)(Oc2cccc(C)c2)Oc2cccc(C)c2)c1", "label_value": 0}
{"compound": "Oc1c(Br)cc(Br)cc1Br", "label_value": 0}
{"compound": "Cc1ccccc1OP(=O)(Oc1ccccc1)Oc1ccccc1", "label_value": 0}
{"compound": "O=S(=O)(C(Cl)(Cl)Cl)C(Cl)(Cl)Cl", "label_value": 1}
{"compound": "CC(C)(COCC1CO1)COCC1CO1 (configuration not stated)", "label_value": 0}
{"compound": "c1ccc(-c2cccc(-c3ccccc3)c2)cc1", "label_value": 0}

Q: Please let me know the test result on file for C#CCOC(=O)/C=C(C)/C=C/CC(C)CCCC(C)C (configuration not stated) .
Result: 0

Q: Please let me know the test result on file for N#CCCC(Br)(C#N)CBr (configuration not stated) .
Result: 1

Q: Please let me know the test result on file for O=C(CCl)NCO .
Result: 0

Q: Please let me know the test result on file for NC(=O)CCl .
Result: 0

* * *

Read-out: Vascular cell adhesion molecule 1 (VCAM1), VCAM1 (gene 7412)
Experiment: BSK_MyoF_VCAM1: BioMAP Diversity Plus: MyoF Assay for Vascular cell adhesion molecule 1 (VCAM1) Biomarker Activity (AID 2284231)
Details: primary human lung fibroblasts
Calls of active or inactive are those of the source. The calls were made as follows: active = hit-call score of the fitted dose curve at least 0.9, where 1 is the maximum; inactive = score below 0.9.
Give one outcome, nothing more. List: true (1) (active), false (0) (inactive)

The following compounds have reported results that may help.
{"query_smiles": "Cc1cc(Cl)ccc1N", "label_value": "false (0)"}
{"query_smiles": "CCOC(=O)CCN(SN(C)C(=O)Oc1cccc2c1OC(C)(C)C2)C(C)C", "label_value": "true (1)"}

Q: Please let me know the test result on file for NC(=O)CCl .
Result: false (0)

* * *

Read-out: Decorin, DCN (gene 1634)
Experiment: BSK_MyoF_Decorin: BioMAP Diversity Plus: MyoF Assay for Decorin Biomarker Activity (AID 2284265)
Details: primary human lung fibroblasts
Calls of active or inactive are those of the source. The calls were made as follows: active = hit-call score of the fitted dose curve at least 0.9, where 1 is the maximum; inactive = score below 0.9.
Give one outcome, nothing more. List: class 1 for active, class 0 for inactive

{"molecule": "CCOC(=O)CC(=O)CCl", "label_value": "class 0"}
{"molecule": "Cc1c([N+](=O)[O-])c(C)c([N+](=O)[O-])c(C(C)(C)C)c1[N+](=O)[O-]", "label_value": "class 0"}
{"molecule": "Cc1ccc(OP(=O)(Oc2ccc(C)cc2C)Oc2ccc(C)cc2C)c(C)c1", "label_value": "class 0"}
{"molecule": "CCOP(=O)(OCC)SCCSCC", "label_value": "class 0"}
{"molecule": "CC(C)=CC1C(C(=O)OCc2cccc(Oc3ccccc3)c2)C1(C)C (configuration not stated)", "label_value": "class 0"}
{"molecule": "Cc1ccccc1OP(=O)(Oc1ccccc1C)Oc1ccccc1C", "label_value": "class 1"}

Below: the item to evaluate.
Q: Please let me know the test result on file for CCN(CC)C(=O)C(Cl)=C(C)OP(=O)(OC)OC .
Result: class 0

* * *

Assay: ATG_PXRE_CIS: Attagene CIS-FACTORIAL HepG2 Assay for human Pregnane X Receptor Element (PXRE) (AID 2282957)
Conditions: HepG2 Attagene CIS-FACTORIAL PXRE reporter, mRNA; actives raise or lower the signal
The source made the active and inactive calls. Rule for the calls: active = hit-call score of the fitted dose curve at least 0.9, where 1 is the maximum; inactive = score below 0.9.
Give one outcome, nothing more. List: active, inactive

The following compounds have reported results that may help.
{"compound": "Oc1c(Br)cc(Br)cc1Br", "label_value": "active"}
{"compound": "O=c1[nH]c2ccccc2n1C1CCN(CCCC(c2ccc(F)cc2)c2ccc(F)cc2)CC1", "label_value": "inactive"}
{"compound": "CCCCN(CCCCO)N=O", "label_value": "active"}
{"compound": "O=C(CBr)c1ccc(O)cc1", "label_value": "inactive"}
{"compound": "CC[N+](CC)(CC)CC", "label_value": "inactive"}

Q: Please let me know the test result on file for C[N+](C)(C)Cc1ccccc1 .
Result: inactive

Q: Please let me know the test result on file for Oc1cccc(-c2ccccc2)c1 .
Result: active

* * *

Target: Heat shock factor protein 1 (Homo sapiens)
Assay: ATG_HSE_CIS: Attagene CIS-FACTORIAL HepG2 Assay for human Heat Shock Transcription Factor 1 (HSE) (AID 2282953)
Settings: HepG2 HSE cis-reporter, Attagene RNA transcription; actives raise or lower the signal
Procedure: ATG_CIS is a cell-based, multiplexed-readout assay that uses HepG2, a human liver cell line, with measurements taken at 24 hours after chemical dosing in a 24-well plate.ATG_HSE_CIS is one of 52 assay component(s) measured or calculated from the ATG_CIS assay. […] This assay endpoint, ATG_HSE_CIS, was analyzed with bidirectional fitting relative to DMSO as the negative control and baseline of activity. […]
Active and inactive are the calls of the source. How the source made its calls: active means hit-call score of the fitted dose curve at least 0.9, where 1 is the maximum; inactive means score below 0.9.
Give one outcome, nothing more. List: active, inactive

The following molecules have reported results that may help.
{"molecule": "CCCCCCCCCCBr", "target_or_system": "Heat shock factor protein 1 (Homo sapiens)", "label_value": "inactive"}
{"molecule": "CC(C)(c1ccc(O)c(-c2ccccc2)c1)c1ccc(O)c(-c2ccccc2)c1", "target_or_system": "Heat shock factor protein 1 (Homo sapiens)", "label_value": "inactive"}
{"molecule": "CCCCOC(=O)COC(=O)c1ccccc1C(=O)OCCCC", "target_or_system": "Heat shock factor protein 1 (Homo sapiens)", "label_value": "inactive"}
{"molecule": "Cc1cc(C(F)(C(F)(F)F)C(F)(F)F)ccc1NC(=O)c1cccc(I)c1C(=O)NC(C)(C)CS(C)(=O)=O", "target_or_system": "Heat shock factor protein 1 (Homo sapiens)", "label_value": "inactive"}

Q: Please let me know the test result on file for Cc1c([N+](=O)[O-])c(C)c([N+](=O)[O-])c(C(C)(C)C)c1[N+](=O)[O-] .
Result: inactive

Q: Please let me know the test result on file for O=c1nc(O)n(Cl)c(=O)n1Cl .
Result: inactive

Q: Please let me know the test result on file for CN(C)C(=S)S .
Result: inactive

Q: Please let me know the test result on file for CC(c1ccccc1)(c1ccc(O)cc1)c1ccc(O)cc1 .
Result: active

Q: Please let me know the test result on file for N#Cc1ccccc1Cl .
Result: inactive

Q: Please let me know the test result on file for CCC[CH2][Sn]([Cl])([Cl])[CH2]CCC .
Result: active

Q: Please let me know the test result on file for C=CC(Cl)CCl (stereo not drawn) .
Result: inactive

Q: Please let me know the test result on file for Clc1cccc(Cl)c1Cl .
Result: inactive

Q: Please let me know the test result on file for CCCCOP(=O)(CCCC)OCCCC .
Result: inactive
